Origin of measurements: patent US20110280940A1

System: A549 non-small-cell-lung cancer cell line
Test: Cellular imaging (quantitative videomicroscopy), global growth ratio, A549
Format: cell-based
Conditions: Homo sapiens, 72 h, read-out: Global Grow Ratio Treated/Ct (GGR T/Ct) determined by Video Quantitative microscopy, A549
attributeMeasured: activity at 50 µM (%)
Your answer should be a plain number; it is taken to be in %.

• COc1cc(C(=O)OCCOC(=O)c2ccc(O)c(OC)c2)ccc1O = 50
• COc1cc(C(=O)O[C@H]2CCCC[C@H]2OC(=O)c2ccc(O)c(OC)c2)ccc1O = 20
• COc1cc(C(=O)O[C@@H]2CCCC[C@H]2OC(=O)c2ccc(O)c(OC)c2)ccc1O [DLT8] = 50
• COc1cc(C(=O)OCCCOC(=O)c2ccc(O)c(OC)c2)ccc1O = 110
• COc1cc(C(=O)OCCCCCCOC(=O)c2ccc(O)c(OC)c2)ccc1O = 20

Q: Entry COc1cc(C(=O)OCCCCCOC(=O)c2ccc(O)c(OC)c2)ccc1O : reported activity at 50 µM = ?
Result: 90

Q: Can you check COc1cc(C(=O)OCCCCCCCOC(=O)c2ccc(O)c(OC)c2)ccc1O next?
Result: 20

Q: Can you check COc1cc(C(=O)OCCCCCCCCOC(=O)c2ccc(O)c(OC)c2)ccc1O next?
Result: 20

Q: Can you check COc1cc(C(=O)O[C@@H]2CCCC[C@H]2OC(=O)c2ccc(O)c(OC)c2)ccc1O (racemic) [DLT4] next?
Result: 20
